Compiled log10 of IC50 measurements on Renin (Homo sapiens) taken from the literature.
// stored as log10 of IC50 expressed in nM

[in] Given the entry CCS(=O)(=O)NCC(C)(C)CNC(=O)[C@@H](C[C@H](O)[C@@H](N)C[C@H](Cc1ccc(OC)c(OCCCOC)c1)C(C)C)C(C)C , report its measured log10 of IC50.
[out] -0.04

[in] Please give the result for CC(C)[C@H](C[C@H](O)[C@@H](N)CN1CC(=O)N(c2cccc(F)c2)CC1(C)C)C(=O)NCC(C)(C)C(N)=O too.
[out] 0.48

[in] Please give the result for C=C(C[C@H](O)[C@H](CC1CCCCC1)NC(=O)[C@H](Cc1c[nH]cn1)NC(=O)[C@H](Cc1ccccc1)NC(C)=O)C(=O)NCCC(C)C too.
[out] 0.60

[in] Please give the result for CC[C@H](C)[C@H](NC(=O)[C@@H](CC(O)[C@H](CC(C)C)NC(=O)[C@H](Cc1cnc[nH]1)NC(=O)C(C)(OC(=O)C(C)(C)C)c1ccccc1)C(C)C)C(=O)N[C@@H](Cc1cnc[nH]1)C(N)=O (stereo partly specified) too.
[out] 1.30

[in] Please give the result for CCOC[C@@H](CC(C)C)NC(=O)[C@@H]1CNC[C@H](C(=O)N(c2cc(OCCCOC)c(C(C)C)cn2)C2CC2)[C@@H]1O too.
[out] -0.40

[in] Please give the result for CC[C@H](C)[C@H](NC(=O)[C@H](CC1CCCCC1)NC(=O)N(C)CCN(C)C)C(=O)N[C@@H](Cc1ccc2ccccc2c1)[C@@H](O)[C@@H](O)CC(C)C too.
[out] 2.70

* * *

Compiled IC50 measurements on the protein given by its sequence taken from the literature.
Target sequence: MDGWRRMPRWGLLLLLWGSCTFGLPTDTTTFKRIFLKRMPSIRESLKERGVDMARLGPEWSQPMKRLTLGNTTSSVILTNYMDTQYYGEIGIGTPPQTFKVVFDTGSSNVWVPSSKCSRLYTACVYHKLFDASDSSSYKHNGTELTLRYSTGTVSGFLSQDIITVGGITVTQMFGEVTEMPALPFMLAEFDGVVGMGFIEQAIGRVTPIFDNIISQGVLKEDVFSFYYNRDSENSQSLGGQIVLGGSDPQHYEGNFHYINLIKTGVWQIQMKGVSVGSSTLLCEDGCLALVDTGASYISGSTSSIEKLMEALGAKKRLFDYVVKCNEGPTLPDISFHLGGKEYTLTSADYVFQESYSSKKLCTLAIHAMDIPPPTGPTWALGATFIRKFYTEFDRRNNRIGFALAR
Express the reported value numerically, then name its unit.

[in] Given the entry CCCc1nc(-c2cccnc2)cn2c(C(Cc3cccnc3)C(=O)NC(=O)C[C@H](O)[C@H](CC3CCCCC3)NC(=O)C(CC(C)C)NCc3cccc(CN)c3)nnc12 (some centres undefined) , report its measured IC50.
[out] 0.0016 µM

[in] Please give the result for CCCN(c1cc2cc(c1)C(=O)N[C@@H](c1ccccc1)CCc1cccc(c1)C[C@@](C)(N)COC2)S(C)(=O)=O too.
[out] 144 µM

[in] Please give the result for C[C@@]1(N)Cc2cccc(c2)CC[C@H](c2ccccc2)NC(=O)c2cc(cc(-c3ccccc3C#N)c2)COC1=O too.
[out] 275 µM

[in] Please give the result for COCCCOc1cc(C[C@@H](C[C@H](N)[C@@H](O)C[C@H](C(=O)NCC(C)(C)CNS(N)(=O)=O)C(C)C)C(C)C)ccc1OC too.
[out] 0.00079 µM
